# target-of-assay: hALDH1a3 (Homo sapiens, UniProt P47895)
# Sequence (P47895 1-512): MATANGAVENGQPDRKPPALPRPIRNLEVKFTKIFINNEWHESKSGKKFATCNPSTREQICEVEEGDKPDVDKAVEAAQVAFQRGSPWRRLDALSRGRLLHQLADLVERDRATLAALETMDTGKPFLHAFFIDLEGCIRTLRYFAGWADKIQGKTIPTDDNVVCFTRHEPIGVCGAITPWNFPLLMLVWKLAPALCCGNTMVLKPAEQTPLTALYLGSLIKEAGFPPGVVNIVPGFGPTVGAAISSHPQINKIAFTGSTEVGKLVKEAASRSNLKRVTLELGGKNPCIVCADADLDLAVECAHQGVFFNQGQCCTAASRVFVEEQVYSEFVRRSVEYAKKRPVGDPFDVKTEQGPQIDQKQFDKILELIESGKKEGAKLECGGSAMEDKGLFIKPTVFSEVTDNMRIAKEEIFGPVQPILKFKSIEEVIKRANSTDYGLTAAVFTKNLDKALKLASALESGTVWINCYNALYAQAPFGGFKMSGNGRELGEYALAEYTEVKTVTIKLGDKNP
# measurement-notes: Aldh1a3 enzyme inhibition assay (resorufin fluorescence), human enzyme
# test-context: recombinant enzyme, 20° C., activity level classes
Catalogue of compounds with associated IC50
observable: IC50

CCc1ncsc1C(=O)Nc1cc(Cl)c2c(c1)CCC(=O)N2; 0.1 to 0.25 µM
O=C1CCc2cc(NC(=O)c3ccccc3-c3cccc(F)c3)ccc2N1; > 5 µM
O=C1CCc2cc(NC(=O)c3ccncc3-c3ccccc3)cc(Cl)c2N1; 1 to 5 µM
O=C1CCc2cc(NC(=O)c3ccncc3-c3ccccc3)ccc2N1; > 5 µM
Cc1cc(NC(=O)c2cnsc2CC(F)(F)F)cc2c1NC(=O)CC2; < 0.1 µM
O=C1CCc2cc(NC(=O)c3scnc3-c3cccc(F)c3)c(F)cc2N1; < 0.1 µM
Cc1cc(NC(=O)c2scnc2-c2cccc(F)c2)cc2c1NC(=O)CC2; 0.1 to 0.25 µM
CCc1ncsc1C(=O)Nc1cc(C)c2c(c1)C1CC1C(=O)N2 (stereo not shown); < 0.1 µM
O=C(Nc1cc(Cl)c2c(c1)C1CC1C(=O)N2)c1scnc1CC(F)(F)F (stereo not shown) [Compound 37]; 0.1 to 0.25 µM
CCc1scnc1C(=O)Nc1cc2c(c(C3CC3)c1)NC(=O)CC2; 1 to 5 µM
Cc1cc(NC(=O)c2ncsc2CC(F)(F)F)cc2c1NC(=O)C1CC21 (stereo not shown); < 0.1 µM
Cc1cc(NC(=O)c2ocnc2CC(F)(F)F)cc2c1NC(=O)C1CC21 (stereo not shown); 0.1 to 0.25 µM
O=C1CCc2cc(NC(=O)c3scnc3-c3cccc(F)c3)ccc2N1; < 0.1 µM
Cc1cc(NC(=O)c2ccncc2-c2ccccc2F)cc2c1NC(=O)CC2; 1 to 5 µM
CCc1ncoc1C(=O)Nc1cc(F)c2c(c1)C1CC1C(=O)N2 (stereo not shown); 1 to 5 µM
CCc1scnc1C(=O)Nc1cc(C)c2c(c1)C1CC1C(=O)N2 (stereo not shown); 0.25 to 1 µM
CCc1ncsc1C(=O)Nc1cc(C)c2c(c1)CCC(=O)N2; 0.1 to 0.25 µM
O=C1CCc2cc(NC(=O)c3ncsc3CC(F)(F)F)cc(Cl)c2N1; < 0.1 µM
Cc1cc(NC(=O)c2scnc2CC(C)C)cc2c1NC(=O)CC2; 0.1 to 0.25 µM
CCc1csnc1C(=O)Nc1cc(C)c2c(c1)C1CC1C(=O)N2 (stereo not shown); 0.1 to 0.25 µM
O=C1CCc2cc(NC(=O)c3scnc3CC(F)(F)F)cc(Cl)c2N1; 0.1 to 0.25 µM
O=C(Nc1cc(F)c2c(c1)C1CC1C(=O)N2)c1ocnc1CC(F)(F)F (stereo not shown); 0.1 to 0.25 µM
Cc1c(F)c(NC(=O)c2ncsc2CC(F)(F)F)cc2c1NC(=O)CC2; 0.1 to 0.25 µM
Cc1cc(NC(=O)c2ccncc2CC(F)(F)F)cc2c1NC(=O)CS2(=O)=O; > 5 µM
Cc1cc(OCCN(C)Cc2cccc(F)c2)cc2c1NC(=O)CC2; 1 to 5 µM
O=C1CCc2cc(NC(=O)c3ccncc3-c3ccccc3F)cc(Cl)c2N1; 1 to 5 µM
CCc1ncsc1C(=O)Nc1cc(Cl)c2c(c1)C1CC1C(=O)N2 (stereo not shown) [Compound 38]; 0.1 to 0.25 µM
CCc1sncc1C(=O)Nc1cc(C)c2c(c1)CCC(=O)N2; 0.25 to 1 µM
CCc1ncoc1C(=O)Nc1cc(C)c2c(c1)C1CC1C(=O)N2 (stereo not shown); 0.25 to 1 µM
Cc1c(Cl)c(NC(=O)c2ncsc2CC(F)(F)F)cc2c1NC(=O)CC2; < 0.1 µM
Cc1cc(NC(=O)c2ccncc2-c2cccc(F)c2)cc2c1NC(=O)CC2; 1 to 5 µM
O=C1CCc2cc(NC(=O)c3ccncc3-c3ccccc3F)ccc2N1; > 5 µM
CCc1cnsc1C(=O)Nc1cc(C)c2c(c1)C1CC1C(=O)N2 (stereo not shown); < 0.1 µM
CCc1scnc1C(=O)Nc1cc(Cl)c2c(c1)CCC(=O)N2; 1 to 5 µM
Cc1cc(NC(=O)c2scnc2CC(F)(F)F)cc2c1NC(=O)CC2; 0.1 to 0.25 µM
CCc1cnsc1C(=O)Nc1cc(C)c2c(c1)CCC(=O)N2; 0.1 to 0.25 µM
O=C1CCc2cc(NC(=O)c3ccccc3-c3cccc(F)c3)cc(Cl)c2N1; 1 to 5 µM
